Measured IC50 at 70 h, listed per entry for reference.
# measurement-protocol: Cytotoxicity assay on L6-cells (Alamar Blue)
# condition-description: rat, Cytotox L6, Cytotoxicity against rat myoblast cells (L6)
Non-standard residues stand in square brackets, D forms with d. Residues, ends and D or L forms follow the SMILES beside them. *: point of attachment. Hexenoyl(2E,4S-Me) = CC[C@H](C)/C=C/C(=O)*; Leu(3R-OH) = CC(C)[C@@H](O)[C@H](N)C(=O)O; NH((S)CH(Me)CH2NMe2) = C[C@@H](CN(C)C)N*; Gly(octyl) = CCCCCCCC[C@H](N)C(=O)O; NHCH2CH2NMe2 = CN(C)CCN*; Hexanoyl = CCCCCC(=O)*; X18 = CN1CCN(CCN*)CC1; Aib = CC(C)(N)C(=O)O; X7 = CN(C)CC(C)(C)N*; βAla = NCCC(=O)O

compound: CCCCCC(=O)N1CCC[C@H]1C(=O)N[C@@H](CCCCNC(C)=O)C(=O)N[C@@H](CC(C)C)C(=O)NC(C)(C)C(=O)N[C@@H](CC(C)C)C(=O)N[C@@H](CC(C)C)C(=O)NC(C)(C)C(=O)NC(C)(C)C(=O)NCCC(=O)N[C@@H](C)CN(C)C [Compound 5766] (Hexanoyl-PK(Ac)L[Aib]LL[Aib][Aib][βAla]-{NH((S)CH(Me)CH2NMe2)})
metric: IC50 at 70 h
result: 4.87 µM
--
compound: CCCCCCCC[C@H](NC(=O)[C@@H]1CCCN1C(=O)CCCCC)C(=O)N[C@@H](CC(C)C)C(=O)NC(C)(C)C(=O)N[C@@H](CC(C)C)C(=O)N[C@@H](CC(C)C)C(=O)NC(C)(C)C(=O)NC(C)(C)C(=O)NCCC(=O)NCCN(C)C [Compound 5643] (Hexanoyl-P[Gly(octyl)]L[Aib]LL[Aib][Aib][βAla]-NHCH2CH2NMe2)
metric: IC50 at 70 h
result: 0.862 µM
--
compound: CCCCCCCC[C@H](NC(=O)[C@@H]1CCCN1C(=O)CCCCC)C(=O)N[C@@H](CC(C)C)C(=O)NC(C)(C)C(=O)N[C@@H](CC(C)C)C(=O)N[C@@H](CC(C)C)C(=O)NC(C)(C)C(=O)NC(C)(C)C(=O)NCCC(=O)NCCN1CCN(C)CC1 [Compound 5884] (Hexanoyl-P[Gly(octyl)]L[Aib]LL[Aib][Aib][βAla]-X18)
metric: IC50 at 70 h
result: 0.128 µM

[ask] What value of IC50 at 70 h has been reported for the following compound? CCCCCCCC[C@H](NC(=O)[C@@H]1CCCN1C(=O)/C=C/[C@@H](C)CC)C(=O)N[C@H](C(=O)NC(C)(C)C(=O)N[C@@H](CC(C)C)C(=O)N[C@@H](CC(C)C)C(=O)NC(C)(C)C(=O)NC(C)(C)C(=O)NCCC(=O)N[C@@H](C)CN(C)C)[C@H](O)C(C)C [Compound 5488] ({Hexenoyl(2E,4S-Me)}-P[Gly(octyl)][Leu(3R-OH)][Aib]LL[Aib][Aib][βAla]-{NH((S)CH(Me)CH2NMe2)})
[reply] 0.666 µM

[ask] What value of IC50 at 70 h has been reported for the following compound? CCCCCCCC[C@H](NC(=O)[C@@H]1CCCN1C(=O)CCCCC)C(=O)N[C@@H](CC(C)C)C(=O)NC(C)(C)C(=O)N[C@@H](CC(C)C)C(=O)N[C@@H](CC(C)C)C(=O)NC(C)(C)C(=O)NC(C)(C)C(=O)NCCC(=O)NC(C)(C)CN(C)C [Compound 5889] (Hexanoyl-P[Gly(octyl)]L[Aib]LL[Aib][Aib][βAla]-X7)
[reply] 0.959 µM

[ask] What value of IC50 at 70 h has been reported for the following compound? CCCCCCCC[C@H](NC(=O)[C@@H]1CCCN1C(=O)CCCCC)C(=O)N[C@H](C(=O)N[C@@H](CC(C)C)C(=O)NC(C)(C)C(=O)NC(C)(C)C(=O)NCCC(=O)N[C@@H](C)CN(C)C)[C@@H](C)O [Compound 5596] (Hexanoyl-P[Gly(octyl)]TL[Aib][Aib][βAla]-{NH((S)CH(Me)CH2NMe2)})
[reply] 5.03 µM

[ask] What value of IC50 at 70 h has been reported for the following compound? CCCCCCCC[C@H](NC(=O)[C@@H]1CCCN1C(=O)CCCCC)C(=O)N[C@H](C(=O)NC(C)(C)C(=O)NC(C)(C)C(=O)NCCC(=O)N[C@@H](C)CN(C)C)[C@@H](C)O [Compound 5594] (Hexanoyl-P[Gly(octyl)]T[Aib][Aib][βAla]-{NH((S)CH(Me)CH2NMe2)})
[reply] 6.02 µM

Numbers sourced from patent EP3345917A1.
